Consider the following pKi data for Nitric oxide synthase 1 (Homo sapiens, UniProt P29475), collected from several reports.
pKi: −log10 of the molar value.
parameter.measured: pKi

A = CCSC(=N)Nc1ccccc1
B = N=C(N)SCCc1ccccc1
C = Cc1cc(N)nc(CCCN2CCC(F)(F)CC2)c1
Lab note: order the above by reported pKi, lowest first, highest last. Note for the reader: the ranking is given by listing the labels in the order requested.
B, A, C
(B: 6.10, A: 6.92, C: 7.32)

* * *

Nitric oxide synthase 1 (Homo sapiens) Ki, compiled from various sources.
Sequence (P29475 whole entry): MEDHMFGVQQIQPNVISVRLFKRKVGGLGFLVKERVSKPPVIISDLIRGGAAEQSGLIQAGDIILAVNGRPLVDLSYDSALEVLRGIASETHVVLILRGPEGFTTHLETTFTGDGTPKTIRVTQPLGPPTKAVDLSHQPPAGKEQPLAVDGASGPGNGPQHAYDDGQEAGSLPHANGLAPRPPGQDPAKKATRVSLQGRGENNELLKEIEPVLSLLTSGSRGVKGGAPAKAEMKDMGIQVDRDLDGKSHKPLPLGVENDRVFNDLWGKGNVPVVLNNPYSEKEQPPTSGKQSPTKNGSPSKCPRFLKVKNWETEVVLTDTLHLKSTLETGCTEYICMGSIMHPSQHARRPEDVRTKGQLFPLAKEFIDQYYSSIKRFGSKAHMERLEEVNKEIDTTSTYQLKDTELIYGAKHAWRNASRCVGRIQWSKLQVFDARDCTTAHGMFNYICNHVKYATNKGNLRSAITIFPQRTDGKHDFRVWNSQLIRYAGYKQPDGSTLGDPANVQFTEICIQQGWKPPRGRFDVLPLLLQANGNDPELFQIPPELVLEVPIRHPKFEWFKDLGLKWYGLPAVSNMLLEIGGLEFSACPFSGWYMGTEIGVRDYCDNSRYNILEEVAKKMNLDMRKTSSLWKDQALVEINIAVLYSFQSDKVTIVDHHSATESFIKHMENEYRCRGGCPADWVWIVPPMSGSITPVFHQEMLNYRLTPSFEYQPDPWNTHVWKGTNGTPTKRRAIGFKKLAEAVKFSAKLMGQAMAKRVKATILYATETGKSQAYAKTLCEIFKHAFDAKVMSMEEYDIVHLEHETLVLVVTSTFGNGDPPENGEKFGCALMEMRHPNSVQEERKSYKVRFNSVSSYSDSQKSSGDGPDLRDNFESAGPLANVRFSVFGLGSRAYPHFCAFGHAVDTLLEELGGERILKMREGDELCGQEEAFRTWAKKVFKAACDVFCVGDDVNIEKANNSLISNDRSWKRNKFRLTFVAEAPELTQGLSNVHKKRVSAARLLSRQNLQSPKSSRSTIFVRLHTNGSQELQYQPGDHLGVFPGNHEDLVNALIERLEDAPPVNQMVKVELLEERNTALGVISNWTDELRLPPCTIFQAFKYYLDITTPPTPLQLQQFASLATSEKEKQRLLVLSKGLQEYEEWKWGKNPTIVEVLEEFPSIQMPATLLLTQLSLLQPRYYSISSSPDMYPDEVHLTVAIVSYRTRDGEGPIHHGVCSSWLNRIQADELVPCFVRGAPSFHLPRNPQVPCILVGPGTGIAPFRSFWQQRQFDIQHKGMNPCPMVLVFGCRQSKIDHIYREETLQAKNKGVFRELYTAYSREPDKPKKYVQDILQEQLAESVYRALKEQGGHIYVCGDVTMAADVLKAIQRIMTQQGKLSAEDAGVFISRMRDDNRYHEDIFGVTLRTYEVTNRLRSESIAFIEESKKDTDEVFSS
parameter.measured: Ki (µM)

Consider the following illustrative entries.
[[record]]
compound = "FC(F)(F)c1ccc(OCCCCCCn2ccnc2)cc1"
result_number = 35

[[record]]
compound = "Cc1cc(N)nc(C#CCN2CC(F)(F)C2)c1"
result_number = 0.488

[[record]]
compound = "Cc1csc(N)n1"
result_number = 10

[[record]]
compound = "Cc1cc(N)nc2cc(-c3cccc(CN)c3)ccc12.Cl.Cl"
result_number = 0.06

[[record]]
compound = "CCC/N=C(\\N)n1cccn1"
result_number = 3


P = CSC(=N)Nc1ccc([N+](=O)[O-])cc1
Q = C/N=C(/N)Nc1ccccc1CC(N)C(=O)O (stereo not given)
R = CC(=N)Nc1cccc(NC(C)=N)c1
S = Cc1ccn(C(=N)N)n1
T = Brc1ccc(OCCn2ccnc2)cc1
Sort low-to-high on Ki, please. Labels, requested order.
Q, R, P, S, T
(Q: 0.41 µM, R: 1.5 µM, P: 3.3 µM, S: 8 µM, T: 125 µM)

A = CSC(=N)Nc1ccc(C(F)(F)F)cc1
B = CCC(=N)NCCC[C@H](N)C(=O)O
Between item A and item B , which reported Ki is smaller? Use the label to indicate which entry you chose.
B

* * *

Study the reported pKi values for Nitric oxide synthase 1 (Homo sapiens) given below; they originate from different publications.
pKi: −log10 of the molar value.
parameter.measured: pKi

Some entries whose results are on file:
[[record]]
compound = "C=CCC(=N)NCCC[C@H](N)C(=O)O"
target_entity = "Nitric oxide synthase 1 (Homo sapiens)"
result_number = 7.00

[[record]]
compound = "N=C(NCC1CC1)n1cccn1"
target_entity = "Nitric oxide synthase 1 (Homo sapiens)"
result_number = 5.00

[[record]]
compound = "Cc1cc(N)nc(C[C@@H]2CNC[C@@H]2OCCNCCc2cccc(F)c2)c1"
target_entity = "Nitric oxide synthase 1 (Homo sapiens)"
result_number = 7.30

[[record]]
compound = "N=C(Nc1cccc(CN)c1)n1cccn1"
target_entity = "Nitric oxide synthase 1 (Homo sapiens)"
result_number = 5.70

[[record]]
compound = "CC(C)SC(=N)N"
target_entity = "Nitric oxide synthase 1 (Homo sapiens)"
result_number = 7.43

[[record]]
compound = "CCSC(=N)Nc1ccccc1C(C)C"
target_entity = "Nitric oxide synthase 1 (Homo sapiens)"
result_number = 5.96


P = CC(=N)Nc1cccc(CNO)c1
Q = CC(=N)Nc1cccc(CSC(=N)N)c1
Of the two listed items, P and Q , which carries the larger pKi figure? // return label of chosen record
Q

a = N[C@@H](CCCc1cnc[nH]1)C(=O)O
b = CC(=N)Nc1cccc(CNCc2cccc(C(C)=N)c2)c1
c = Cc1nccn1CC(=O)c1ccc([N+](=O)[O-])cc1
d = Brc1ccc(OCCCCn2ccnc2)cc1
Order these by pKi, descending, and give the full ranking. Arrange the labels as the request states and list them.
b, a, d, c
(b: 7.38, a: 5.70, d: 4.49, c: 4.13)

I = CC(=N)Nc1cccc(NN)c1
II = CC(C)C/N=C(\N)n1cccn1
For the pair I and II , which member has the lower pKi number? Lab note: record the label of whichever item you select.
II
(II: 4.35, I: 5.96)

P = N[C@@H](CCCCc1cnc[nH]1)C(=O)O
Q = CC(=N)Nc1cccc(S(N)(=O)=O)c1
R = N=C(N)SCc1ccc(CSC(=N)N)cc1
Ranking field: pKi; order: falling. # output: labels, in the requested order
R, Q, P
